Cited source for all entries: ChEMBL document CHEMBL3112428

# Test system: Mycobacterium tuberculosis
# procedure-details: Antituberculosis activity against Mycobacterium tuberculosis H37Rv ATCC 27294 assessed as inhibition of bacterial replication after 6 days by luminometry analysis
# Assay type: functional, organism-based
# measurement-conditions: H37Rv ATCC 27294, 144 h
property-name: IC99

1) O=C(/N=N/c1ccc(F)cc1)Nc1ccccc1 > 50 µg/mL
2) O=C(/N=N/C(=O)Nc1ccc(F)cc1F)NCc1ccncc1 > 50 µg/mL
3) O=C(/N=N/C(=O)Nc1ccc(F)cc1)NCc1ccncc1 > 50 µg/mL
4) O=C(/N=N/c1ccc(Cl)cc1)Nc1ccccc1 49.3 µg/mL
5) O=C(/N=N/C(=O)Nc1ccc(F)cc1F)NCc1cccnc1 > 50 µg/mL
6) CCOC(=O)/N=N/C(=O)Nc1ccccc1 > 50 µg/mL
7) O=C(/N=N/c1nccc(C(F)(F)F)n1)Nc1ccccc1 > 50 µg/mL
8) COC(=O)/N=N/C(=O)Nc1ccc(OC)cc1 > 50 µg/mL
9) COc1ccc(/N=N/C(=O)Nc2ccccc2)cc1 42.2 µg/mL
10) O=C(/N=N/c1ccccn1)Nc1ccccc1 > 50 µg/mL
11) O=C(/N=N/c1c(F)c(F)c(F)c(F)c1F)Nc1ccccc1 > 50 µg/mL
12) O=C(/N=N/c1ccc([N+](=O)[O-])cc1)Nc1ccccc1 16.5 µg/mL

====

# System: Mycobacterium tuberculosis
# procedure-details: Antituberculosis activity against Mycobacterium tuberculosis H37Rv ATCC 27294 assessed as inhibition of bacterial replication after 6 days by luminometry analysis
# Format: functional, organism-based
# measurement-conditions: H37Rv ATCC 27294, 144 h
# label = fulfilled if IC50 < 10 µg/mL else not fulfilled

1. O=C(/N=N/c1ccc(Cl)cc1)Nc1ccccc1 not fulfilled
2. COC(=O)/N=N/C(=O)Nc1ccc(OC)cc1 not fulfilled
3. O=C(/N=N/c1c(F)c(F)c(F)c(F)c1F)Nc1ccccc1 not fulfilled
4. COc1ccc(/N=N/C(=O)Nc2ccccc2)cc1 not fulfilled
5. O=C(/N=N/C(=O)Nc1ccc(F)cc1)NCc1cccnc1 not fulfilled
6. CCOC(=O)/N=N/C(=O)Nc1ccc(C)cc1 fulfilled
7. NNC(=O)c1ccncc1 fulfilled
8. O=C(/N=N/C(=O)Nc1ccc(F)cc1F)NCc1ccncc1 not fulfilled
9. O=C(/N=N/c1nccc(C(F)(F)F)n1)Nc1ccccc1 not fulfilled
10. O=C(/N=N/c1ccc(F)cc1)Nc1ccccc1 not fulfilled
11. O=C(/N=N/c1ccc([N+](=O)[O-])cc1)Nc1ccccc1 fulfilled
12. O=C(/N=N/C(=O)Nc1ccc(F)cc1F)NCc1cccnc1 not fulfilled
13. O=C(/N=N/c1ccccn1)Nc1ccccc1 not fulfilled
14. O=C(/N=N/c1ccc(C(F)(F)F)cc1)Nc1ccccc1 fulfilled
15. O=C(/N=N/C(=O)Nc1ccc(F)cc1)NCc1ccncc1 not fulfilled
16. CCOC(=O)/N=N/C(=O)Nc1ccccc1 not fulfilled

====

# Tested on: Mycobacterium tuberculosis
# procedure-details: Antituberculosis activity against Mycobacterium tuberculosis H37Rv ATCC 27294 assessed as inhibition of bacterial replication after 6 days by luminometry analysis
# Format: functional, organism-based
# measurement-conditions: H37Rv ATCC 27294, 144 h

compound	unit-string	IC99
CCOC(=O)/N=N/C(=O)Nc1ccc(C)cc1	µg/mL	7.97
NNC(=O)c1ccncc1 [ISONIAZID]	µg/mL	0.13
O=C(/N=N/c1ccc(C(F)(F)F)cc1)Nc1ccccc1	µg/mL	6.24
